Assignment: determine reported hemolysis at 1 h, 12.5 µM for the given molecules.
Experiment: in vitro
Details: human
Non-standard residues stand in square brackets, D forms with d. Residues, ends and D or L forms follow the SMILES beside them.
Answers are plain numbers, in %.

molecule: CC(C)C[C@@H](NC(=O)[C@H](N)Cc1c[nH]c2ccccc12)C(=O)N[C@H](Cc1c[nH]c2ccccc12)C(=O)N[C@H](C)C(=O)N[C@H](CC(C)C)C(=O)N[C@H](CC(C)C)C(=O)N[C@H](CCCCN)C(=O)N[C@H](CC(C)C)C(=O)N[C@H](CC(C)C)C(=O)N[C@H](CCCCN)C(=O)N[C@H](CC(C)C)C(=O)N[C@H](CCCCN)C(N)=O [mKLK] (H-[dW][dL][dW][dA][dL][dL][dK][dL][dL][dK][dL][dK]-NH2; N-terminus assumed)
hemolysis at 1 h, 12.5 µM / %: 9.3

GET /value?item= CC(C)C[C@@H](NC(=O)[C@H](N)CCCCN)C(=O)N[C@H](CCCCN)C(=O)N[C@H](CC(C)C)C(=O)N[C@H](CC(C)C)C(=O)N[C@H](CC(C)C)C(=O)N[C@H](CC(C)C)C(=O)N[C@H](CC(C)C)C(=O)N[C@H](CCCCN)C(=O)N[C@H](CC(C)C)C(=O)N[C@H](CCCCN)C(N)=O [KLK] (H-[dK][dL][dK][dL][dL][dL][dL][dL][dK][dL][dK]-NH2; N-terminus assumed) &field=hemolysis at 1 h, 12.5 µM returns 34.2
